experiment: Absorbance at photostationary state (PSS) under simulated sunlight or 365 nm light; type: physicochemical; settings: ratio of PSS under 365 nm light to PSS under full spectrum light (without UV blocking film)
Checkbox rule: sensitivity index lower than 3 = true; sensitivity index not lower than 3 = false.

>>> assignedcategory("COCCOCCOCCOC(C)(C)c1ccc(-c2cc(C3=C(c4cc(-c5ccc(C(C)(C)OCCOCCOCCOC)cc5)sc4-c4ccc(C(C)(C)C)cc4)C(F)(F)C(F)(F)C3(F)F)c(-c3ccc(C(C)(C)C)cc3)s2)cc1")
"true"
>>> assignedcategory("Cc1cc(-c2sc(C)c(C)c2C2=C(c3c(-c4cc(C)c(C)s4)sc(C)c3C)C(F)(F)C(F)(F)C2(F)F)sc1C")
"false"
>>> assignedcategory("CCCCCCCCc1ccc(-c2oc3ccccc3c2C2=C(c3c(-c4ccc(CCCCCCCC)cc4)oc4ccccc34)C(F)(F)C(F)(F)C2(F)F)cc1")
"false"
>>> assignedcategory("FC1(F)C(c2c(-c3ccccc3)sc3ccccc23)=C(c2c(-c3ccccc3)sc3ccccc23)C(F)(F)C1(F)F")
"true"
>>> assignedcategory("c1ccc(-c2nc(-c3cc(-c4cccs4)sc3-c3cccs3)c(-c3cc(-c4cccs4)sc3-c3cccs3)s2)cc1")
"false"
>>> assignedcategory("CC(C)(C)c1ccc(-c2sc(-c3ccc(C(C)(C)O)cc3)cc2C2=C(c3cc(-c4ccc(C(C)(C)O)cc4)sc3-c3ccc(C(C)(C)C)cc3)C(F)(F)C(F)(F)C2(F)F)cc1")
"true"
>>> assignedcategory("c1ccc(-c2cc(-c3nc(-c4ccccc4)sc3-c3cc(-c4ccccc4)sc3-c3ccccc3)c(-c3ccccc3)s2)cc1")
"false"
>>> assignedcategory("COc1cccc(-c2cc(C3=C(c4cc(-c5cccc(OC)c5)sc4-c4cccc(OC)c4)C(F)(F)C(F)(F)C3(F)F)c(-c3cccc(OC)c3)s2)c1")
"false"
>>> assignedcategory("CC(C)Oc1ccc(-c2cc(C3=C(c4cc(-c5ccc(OC(C)C)cc5)sc4-c4ccc(OC(C)C)cc4)C(F)(F)C(F)(F)C3(F)F)c(-c3ccc(OC(C)C)cc3)s2)cc1")
"true"
>>> assignedcategory("Cc1ccc(-c2cc(C3=C(c4cc(-c5ccc(C)s5)sc4-c4ccc(C)s4)C(F)(F)C(F)(F)C3(F)F)c(-c3ccc(C)s3)s2)s1")
"true"
>>> assignedcategory("COCCC[Si](CCCOC)(CCCOC)c1ccc(-c2cc(C3=C(c4cc(-c5ccc([Si](CCCOC)(CCCOC)CCCOC)s5)sc4-c4ccc([Si](CCCOC)(CCCOC)CCCOC)s4)C(F)(F)C(F)(F)C3(F)F)c(-c3ccc([Si](CCCOC)(CCCOC)CCCOC)s3)s2)s1")
"true"

* * *

test: Absorbance at photostationary state (PSS) under simulated sunlight or 365 nm light; type: physicochemical; details: 365 nm light source; 2.0×10^−5 M in triglyme
endpointLabel: Absorbance at PSS, 365 nm

>>> reading("COc1cc2oc(-c3ccc(C(C)(C)C)cc3)c(C3=C(c4c(-c5ccc(C(C)(C)C)cc5)oc5cc(OC)c(OC)cc45)C(F)(F)C(F)(F)C3(F)F)c2cc1OC")
0.546
>>> reading("COc1ccc2c(C3=C(c4c(-c5ccc(OC)c(OC)c5)oc5cc(OC)ccc45)C(F)(F)C(F)(F)C3(F)F)c(-c3ccc(OC)c(OC)c3)oc2c1")
0.329
>>> reading("FC1(F)C(c2cc(-c3ccc(Cl)cc3)sc2-c2ccc(Cl)cc2)=C(c2cc(-c3ccc(Cl)cc3)sc2-c2ccc(Cl)cc2)C(F)(F)C1(F)F")
0.194
>>> reading("CC(C)(C)c1ccc(-c2oc3cc4c(cc3c2C2=C(c3c(-c5ccc(C(C)(C)C)cc5)oc5cc6c(cc35)OCO6)C(F)(F)C(F)(F)C2(F)F)OCO4)cc1")
0.533
>>> reading("Cc1ccc(-c2oc3ccccc3c2C2=C(c3c(-c4ccc(C)s4)oc4ccccc34)C(F)(F)C(F)(F)C2(F)F)s1")
0.15
>>> reading("COCCOc1ccc(-c2sc(-c3ccc(C(C)(C)C)s3)cc2C2=C(c3cc(-c4ccc(C(C)(C)C)s4)sc3-c3ccc(OCCOC)cc3)C(F)(F)C(F)(F)C2(F)F)cc1")
0.383
>>> reading("N#Cc1ccc(-c2ccc(-c3cc(C4=C(c5cc(-c6ccc(-c7ccc(C#N)s7)s6)sc5-c5cccs5)C(F)(F)C(F)(F)C4(F)F)c(-c4cccs4)s3)s2)s1")
0.442
>>> reading("CCOc1ccc(-c2cc(C3=C(c4cc(-c5ccc(OCC)cc5)sc4-c4ccc(OCC)cc4)C(F)(F)C(F)(F)C3(F)F)c(-c3ccc(OCC)cc3)s2)cc1")
0.287
